- Protocol Description: inhibitors of intracellular T. cruzi growth, primary screen, luminescence, NIH3T3 host cells (AID 1885);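 note: signal also drops with host cell toxicity which is not excluded here; 0% = plate median of DMSO wells and 100% = zero luminescence signal; higher percent means less beta-gal luminescence so fewer parasites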
- Stated Conditions: T. cruzi beta-gal in NIH3T3, luminescence, 90 h; active compounds read high; concentration not given here
About 4,400 (1.5%) of roughly 300,000 compounds were called active. For the sample, actives were picked, then their nearest neighbours and some compounds at random.
This section presents compounds with their documented inhibition values.
Output spec: scalar in %, unitless text.

Observe how each entry below is paired with its result.
COc1ccc(C(=O)NCC2CCCN2S(=O)(=O)c2cccs2)cc1OC (stereo not drawn) | -3.88
COc1ccc2cc(S(=O)(=O)Nc3ccccn3)ccc2c1 | 4.63
COc1ccc(OCc2cc(C(=O)NCC3(C)COC3)no2)c(Cl)c1 | -0.702
COc1ccc(C(=O)Cc2cnn(-c3ccccc3)c2)c(O)c1 | 33.1
C=C(C)COc1ccc(-c2n[nH]c(C)c2-c2ccccc2)c(O)c1 | -19.2

Prompt: Quick one: inhibition of "O=C(COC(=O)/C=C/c1ccc(OC(F)F)cc1)NC1CCCCC1" ?
Response: -1.87

Prompt: Requested read-out: inhibition. Entry: "O=c1[nH]c(CCl)nc2cc(-c3ccc(Cl)cc3)sc12"
Response: 55.8

Prompt: Can you share its inhibition? I mean this compound: "NC(=O)Cc1nc2scc(-c3ccc(Cl)cc3)c2c(=O)[nH]1"
Response: -9.75

Prompt: Would you kindly share the measured inhibition for "CNC(=S)N/N=C/c1ccc(N2CCOCC2)s1" ?
Response: 57.6

Prompt: Given the compound "COCCNc1nc(-c2ccccc2)nc2c1oc1ccccc12" , what is its reported inhibition?
Response: 36.8

Prompt: Recorded inhibition of "Cc1cc(C)c2[nH]c(=O)c(CN(Cc3ccccc3)C(=S)NCCCN(C)C)cc2c1" , please.
Response: 59.1

Prompt: Request the reported inhibition associated with CCN(CC)C(=O)CSC1c2ccccc2C(=O)N1c1ccccc1 (stereo not drawn)
Response: -17.2

Prompt: GET /values?readout=inhibition&item= "O=c1[nH]c(CN2CCOCC2)nc2cc(Cl)ccc12"
Response: -13.1

Prompt: Requested read-out: inhibition. Entry: "COc1ccc(C(=O)/C=C/c2ccc(-c3ccccc3)cc2)cc1CSCC(=O)O"
Response: -21

Prompt: Looking for the measured inhibition of "Oc1ccc(CN2CCN(c3ncccn3)CC2)cc1" , can you help?
Response: -5.02

Prompt: Quick check: inhibition of "Cc1occc1C(=O)N/N=C/c1ccc(-c2cccc([N+](=O)[O-])c2)o1" ?
Response: 67.8

Prompt: Query (compound): "Cc1cc(C(=O)N/N=C/c2ccc(N3CCOCC3)cc2)c(C)o1" ; field requested: inhibition
Response: 0.447

Prompt: Endpoint output: inhibition of "O=C(COC(=O)c1ccccc1Br)Nc1nnc(-c2ccccc2)o1" . Value?
Response: 1.76

---

- Protocol Description: inhibitors of intracellular T. cruzi growth, primary screen, luminescence, NIH3T3 host cells (AID 1885);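 note: signal also drops with host cell toxicity which is not excluded here; 0% = plate median of DMSO wells and 100% = zero luminescence signal; higher percent means less beta-gal luminescence so fewer parasites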
- Stated Conditions: T. cruzi beta-gal in NIH3T3, luminescence, 90 h; concentration not given here
Hit rate of the full screen: of about 300,000 compounds, about 4,400 (1.5%) were called active.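 Rule for the calls: active = mean inhibition across valid replicates above about 55% (limit read from the data); inconclusive = mean below that limit but half or more replicates reach it; inactive = mean below it, under half of replicates reach it.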 Many of the other results were omitted from the sample, so actives are more common in it than they were.
Outcome (select one): active, inactive

Consider the following illustrative entries.
COc1cc2c(cc1OC)C(C(=O)NCc1ccco1)C1c3ccccc3CCN1C2=O (centres undefined) | inactive
OCCCNc1nc(-c2ccccc2)c2cc(Cl)ccc2n1 | inactive
COc1ccccc1NC(=O)CN(c1ccccc1OC)S(=O)(=O)c1ccccc1 | inactive

Prompt: Hi, do you know how "FC(F)(F)c1ccc2c3n(nc2c1)CCN=C3c1ccc(Cl)cc1" came out in this test?
Response: inactive

Prompt: Could you kindly confirm the outcome this assay logged for "COc1ccc(CCNC(=O)c2cc3sccc3n2C)cc1OC" ?
Response: inactive

Prompt: Tell me the recorded outcome of this test for "COc1ccc(CNc2cc(C)cc(C)c2)cc1OC" .
Response: inactive

Prompt: Can you look up the reported call for Cc1ccc2nc(NC(=O)C3CSC4(C)CCC(=O)N34)sc2c1 (centres undefined) for me?
Response: inactive

Prompt: Hi, sorry to bother you, what did the test record for CN(C(=O)CN1C(=O)NC(C)(CCc2ccccc2)C1=O)c1ccccc1 (centres undefined) ?
Response: inactive

Prompt: Answer briefly: the call reported for "Cc1nc2ccccc2n1CC(=O)N/N=C/c1cccnc1" in this assay.
Response: inactive

Prompt: What is the recorded call for this compound in the test? "O=C(NCCS(=O)(=O)N1CCN(c2ccc(F)cc2)CC1)c1ccc2c(c1)OCO2"
Response: inactive

Prompt: What did this assay record as the result for OC(COCCC12CC3CC(CC(C3)C1)C2)CN1CCCCC1 (centres undefined) ?
Response: active

Prompt: Check the results log: what was the call for "CCCn1nc(C(=O)NNC(=O)CSCC(=O)Nc2cc(C)on2)c2ccccc2c1=O" ?
Response: inactive

Prompt: Please state the recorded outcome for this compound: "COC(=O)c1ccccc1NC(=S)NC(=O)c1ccccc1F"
Response: inactive

---

- Protocol Description: inhibitors of intracellular T. cruzi growth, primary screen, luminescence, NIH3T3 host cells (AID 1885);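 note: signal also drops with host cell toxicity which is not excluded here; 0% = plate median of DMSO wells and 100% = zero luminescence signal; higher percent means less beta-gal luminescence so fewer parasites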
- Stated Conditions: T. cruzi beta-gal in NIH3T3, luminescence, 90 h; concentration not given here
In all, about 300,000 compounds went through this assay and about 4,400 (1.5%) were called active.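 How the source made its calls: active means mean inhibition across valid replicates above about 55% (limit read from the data); inconclusive means mean below that limit but half or more replicates reach it; inactive means mean below it, under half of replicates reach it.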 Shown is part of a subset that was picked to be rich in actives.
Pick from label 1 (active), label 0 (inactive) when you respond.

Prompt: Fill in: this test's call for "O=C(O)c1ccccc1NC(=O)c1ccccc1-c1ccccc1C(=O)O" is ___
Response: label 0

Prompt: Which result was noted for this compound in the test: "CCOC(=O)/C(=C\c1ccc([N+](=O)[O-])cc1)C(=O)c1cc(C(C)=O)c(Nc2ccccc2)s1"
Response: label 1

Prompt: How was "CC1(C)S[C@@H]2[C@H](N=CN3CCCCCC3)C(=O)N2[C@H]1C(=O)O" classified in this test?
Response: label 0

---

- Protocol Description: inhibitors of intracellular T. cruzi growth, primary screen, luminescence, NIH3T3 host cells (AID 1885);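 note: signal also drops with host cell toxicity which is not excluded here; 0% = plate median of DMSO wells and 100% = zero luminescence signal; higher percent means less beta-gal luminescence so fewer parasites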
- Stated Conditions: T. cruzi beta-gal in NIH3T3, luminescence, 90 h; active compounds read high; concentration not given here
Hit rate of the full screen: of about 300,000 compounds, about 4,400 (1.5%) were called active. The sample holds actives, similar compounds and a random draw of the others, so the mix is not that of the screen.
Quantity: inhibition (%)
Express the result in % but write the number alone.

CCC(C(=O)NCc1ccc(OC)cc1)n1nc(C)n2c(cc3occc32)c1=O (stereo not drawn) | -2.81
NC(=S)Nc1c(Cl)cccc1Cl | -4.22

Prompt: Returns the measured inhibition for the input compound. Input: "Cc1ccc(N=C2SCCCN2C(=O)c2cccc(N3C(=O)CCC3=O)c2)cc1Cl"
Response: 35.8

Data origin, for the record: PubChem BioAssay AID1885
